Just for reference, patent US7022707B2 is where these values come from.

Entries and their melting point values follow.

> print(dat)
                           molecular.string      parameter             result
1  CC(C)COc1ccc(F)c(COC(=O)N2[C@H](C)CNC[C@@H]2C)c1.O=C(O)/C=C/C(=O)O  melting point  178.6 to 178.7 °C
2  CCCCOc1ccc(F)c(COC(=O)N2CCNC[C@H]2C)c1.O=C(O)/C=C/C(=O)O  melting point  171.6 to 171.7 °C
3  CCCOc1ccc(F)c(COC(=O)N2CCNCC2)c1.O=C(O)/C=C/C(=O)O  melting point  155.9 to 156.1 °C

What melting point value was documented for this molecule, "C[C@@H]1CNCCN1C(=O)OCc1ccc(OC(F)F)cc1.O=C(O)/C=C/C(=O)O" ?
123.9 to 124.5 °C

# input molecule: "CCOc1ccc(F)c(COC(=O)N2[C@H](C)CNC[C@@H]2C)c1.O=C(O)/C=C/C(=O)O" ; wanted: its melting point
142.9 to 143.3 °C

Look up melting point: "CCCOc1ccc(F)c(COC(=O)N2CCNC[C@H]2C)c1.O=C(O)/C=C/C(=O)O"
162.6 to 162.7 °C

Please give the measured melting point for this molecule: "C[C@@H]1CNC[C@H](C)N1C(=O)OCc1c(F)ccc(Br)c1F.Cl"
207 to 210 °C

Give its melting point value. Item: "CCCCOc1ccc(F)c(COC(=O)N2[C@H](C)CNC[C@@H]2C)c1.O=C(O)/C=C/C(=O)O"
153.2 to 153.5 °C

====

Target: 5-HT2C receptor (Homo sapiens)
Assay: Functional activity, FLIPR calcium assay, CHO cells expressing human 5-HT2C
Format: cell-based
Parameters: expressed in transfected cells; host or cells: CHO cells
Counter-ions that a name gives are not always drawn.
PARAMETER: EC50 (µM)
A number alone suffices; assume µM.

What does the data say about its EC50? Entry: CC(C)NC(=O)Oc1ccc(CSC(=O)N2CCNCC2)cc1 [Example 63, hydrochloride]
0.033

====

A collection of molecules and their measured pEC50
Biological target: 5-HT2C receptor (Homo sapiens, UniProt P28335)
Sequence (P28335 33-458): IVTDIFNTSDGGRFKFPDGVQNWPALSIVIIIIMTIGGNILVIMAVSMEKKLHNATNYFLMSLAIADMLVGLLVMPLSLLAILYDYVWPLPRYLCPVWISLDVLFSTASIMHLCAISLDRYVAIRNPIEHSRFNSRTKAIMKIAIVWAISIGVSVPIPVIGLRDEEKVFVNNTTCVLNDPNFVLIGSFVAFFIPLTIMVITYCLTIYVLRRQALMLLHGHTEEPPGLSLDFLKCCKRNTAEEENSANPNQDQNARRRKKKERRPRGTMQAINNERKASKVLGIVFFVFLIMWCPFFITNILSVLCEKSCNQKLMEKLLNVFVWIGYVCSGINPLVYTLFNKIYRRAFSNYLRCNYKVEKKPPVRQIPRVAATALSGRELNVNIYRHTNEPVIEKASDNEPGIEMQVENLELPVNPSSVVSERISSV
Assay: Functional activity, FLIPR calcium assay, CHO cells expressing human 5-HT2C
Type: cell-based
Set-up: expressed in transfected cells; host or cells: CHO cells
Conditions: FLIPR, CHO cells, Fluo-3-AM; read-out: h5-HT2c EC50
Procedure: The functional activity of compounds of formula (I) was assayed using a Fluorimetric Imaging Pate reader (FLIPR). CHO cells expressing the human 5-HT2C or human 5-HT2A receptors were counted and plated into standard 96 well microtitre plates on the day before testing to give a confluent monolayer. […] The drug (dissolved in 50 µL of the assay buffer) was added at a rate of 70 μL/sec to each well of the FLIPR 96 well plate during fluorescence measurements. […]
When answering, recall that pEC50 equals minus log10 of the concentration in mol/L, and write that number alone.

> print(dat)
                                   molecule  number
1  Cc1noc(C)c1COc1cc(F)c(COC(=O)N2[C@H](C)CNC[C@@H]2C)c(F)c1 [Example 121]    7.66
2  Cl.O=C(SCc1ccc(OCc2ccccc2)cc1)N1CCNCC1 [Example 32, hydrochloride]    7.42

Moving on to the next molecule.
Give the measured pEC50 of Cl.O=C(OCc1ccc(OC(F)F)cc1)N1CCNCC1 [Example 22, hydrochloride] .
7.00
